kon reference
Target: T1, human monomeric BCMA antigen (human, UniProt Q02223 5-54, limits assumed)
T1 construct: also called recombinant human BCMA antigens
T1 chain: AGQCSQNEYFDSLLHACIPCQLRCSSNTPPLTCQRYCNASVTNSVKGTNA
Experiment: SPR (Biacore T200), antibody captured on protein A chip, antigen 6.25-100 nM
Description: In particular, the prepared antibodies were diluted with a 1×HPS-EP buffer (GE Healthcare, BR-1006-69). The target antigen-binding affinity analysis was performed using a Biacore T200 (GE Healthcare). The antibodies were flowed onto a protein A chip at a contact time of 60 seconds, a stabilization time of 30 seconds, and a flow rate of 30 μl/min until a capture level reached 128 RU (Response Unit), thereby preparing an antibody-captured protein A chip. […]
Write the value in M⁻¹ s⁻¹ as a bare number.

[[record]]
binder = "mutant antibody 5D5 LM4 (antibody, V domains shown, Light chain CDR mutant of 5D5 (IgG1); heavy chain as 5D5) VH: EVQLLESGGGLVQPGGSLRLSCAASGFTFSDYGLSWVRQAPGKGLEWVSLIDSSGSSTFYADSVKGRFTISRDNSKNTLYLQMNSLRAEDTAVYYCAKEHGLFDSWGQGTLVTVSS VL: EIVLTQSPGTLSLSPGERATLSCKASQDIDDAINWYQQKPGQAPRLLIYDASLRATGIPDRFSGSGSGTDFTLTISRLEPEDFAVYYCQQSLRTPITFGQGTKLEIKR"
readout_number = "4.17e+06"


[Q] Recorded kon for anti-BCMA IgG antibody 5D5 (antibody, V domains shown, also called 5D5 WT; 5D5 antibody) VH: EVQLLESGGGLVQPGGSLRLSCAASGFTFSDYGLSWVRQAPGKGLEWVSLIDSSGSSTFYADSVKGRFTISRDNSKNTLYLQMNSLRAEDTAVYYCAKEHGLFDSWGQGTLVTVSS VL: EIVLTQSPGTLSLSPGERATLSCKASQDIDDDINWYQQKPGQAPRLLIYDASLRATGIPDRFSGSGSGTDFTLTISRLEPEDFAVYYCQQSLRTPITFGQGTKLEIKR , please?
[A] 2.63e+06

[Q] Quick one: anti-BCMA IgG antibody 5A6 (antibody, V domains shown, also called 5A6 WT; 5A6 antibody) VH: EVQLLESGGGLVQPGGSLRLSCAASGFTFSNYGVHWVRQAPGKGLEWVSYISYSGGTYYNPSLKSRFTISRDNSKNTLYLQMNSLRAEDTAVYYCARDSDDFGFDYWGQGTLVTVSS VL: QSVLTQPPSASGTPGQRVTISCQGDSLRSYYVNWYQQLPGTAPKLLIYDHSKRPTGVPDRFSGSKSGTSASLAISGLRSEDEADYYCQSYDSSTVVFGGGTKLTVLG
[A] 399000

[Q] Quick one: mutant antibody 5A6 LM6 (antibody, V domains shown, Light chain CDR mutant of 5A6 (IgG1); heavy chain as 5A6) VH: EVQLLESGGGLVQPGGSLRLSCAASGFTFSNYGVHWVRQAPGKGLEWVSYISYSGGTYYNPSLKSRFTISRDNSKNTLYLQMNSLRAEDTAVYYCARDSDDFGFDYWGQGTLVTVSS VL: QSVLTQPPSASGTPGQRVTISCQGESLRSYYVNWYQQLPGTAPKLLIYDHSKRPTGVPDRFSGSKSGTSASLAISGLRSEDEADYYCQSYDASTVVFGGGTKLTVLG
[A] 509000
